# Test system: LPS-induced microglia activation
# Test method notes: Image-based assay of LPS-induced microglia activation (HTS and dose response)
# Type: cell-based, rat
# Particulars: Rattus norvegicus, Microglia, dose response, LPS-induced microglia activation; read-out: LPS IC50
pIC50: −log10 of the molar value. Where a SMILES comes first, the peptide text is derived from it. Bridges are numbered along the chain shown (N, C = ends). [ ]: non-standard residue; d: D form. The star is where a group is joined. Ileψ(thiazoline)Cys = CC[C@H](C)[C@H](N)C1=N[C@H](C(=O)*)CS1; dOrn = NCCC[C@@H](N)C(=O)O
Below, each entry is listed alongside its reported pIC50.

INSERT INTO results (compound, measurement_target, result) VALUES
  ('CN(C)CCc1c[nH]c2ccc(CS(=O)(=O)N3CCCC3)cc12 [Almotriptan, reference compound]', 'LPS-induced microglia activation', '< 4.70');

Now for a further compound.
Q: Name the recorded pIC50 for CC[C@H](C)[C@H](N)C1=N[C@H](C(=O)N[C@@H](CC(C)C)C(=O)N[C@H](CCC(=O)O)C(=O)N[C@H](C(=O)N[C@H]2CCCCNC(=O)[C@H](CC(N)=O)NC(=O)[C@@H](CC(=O)O)NC(=O)[C@H](Cc3cnc[nH]3)NC(=O)[C@@H](Cc3ccccc3)NC(=O)[C@H]([C@@H](C)CC)NC(=O)[C@@H](CCCN)NC2=O)[C@@H](C)CC)CS1 [Bacitracin, reference compound] ({Ileψ(thiazoline)Cys}-L[dE]IK[dOrn]I[dF]H[dD]N; lactam 4-C) .
A: < 4.70

* * *

LPS % cell toxicity tested on primary rat microglia: recorded values
Counter-ions that a name gives are not always drawn.
Number only, in %; omit the unit.

Look over these answered cases.
INSERT INTO results (compound, measurement_units, readout_number) VALUES
  ('CC1=C(/C=C/C(C)=C/C=C/C(C)=C/C(=O)O)C(C)(C)CCC1 [Tretinon, Tretinoin]', '%', 1),
  ('C[C@@H](O)CN(CCN(C[C@@H](C)O)C[C@@H](C)O)C[C@@H](C)O [Editol]', '%', 0),
  ('C[C@H]1O[C@@H](n2cc(F)c(=O)[nH]c2=O)[C@H](O)[C@@H]1O [5-fluoro-5′-deoxyuridine, Doxifluridine]', '%', 0),
  ('C[C@H]1C[C@H]2[C@@H]3CCC4=CC(=O)C=C[C@]4(C)[C@@]3(Cl)[C@@H](O)C[C@]2(C)[C@@]1(O)C(=O)CO [Beclomethasone]', '%', 0),
  ('COC(=O)CCc1ccc(OCC(O)CNC(C)C)cc1 (stereo not drawn) [Esmolol, Esmolol Hydrochloride]', '%', 0);

Now for a further compound.
Q: Given the entry FC(F)(Cl)C(F)(F)Cl [Cryoflurane] , what LPS % cell toxicity was observed with primary rat microglia?
A: 0

* * *

Below, each entry is listed alongside its reported Fibrin % cell toxicity.
# System: primary rat microglia
Number only, in %; omit the unit.

Look over these answered cases.
INSERT INTO results (compound, measurement_units, readout_number) VALUES
  ('N[C@@H]1C[C@H]1c1ccccc1.N[C@H]1C[C@@H]1c1ccccc1.O=S(=O)(O)O [Tranylcypromine Sulfate]', '%', 0),
  ('Cc1cc(C(C)(C)CC(C)(C)C)ccc1OCCOCC[N+](C)(C)Cc1ccccc1.[Cl-] [Methylbenzethonium Chloride]', '%', 17);

Now for a further compound.
Q: Name the recorded Fibrin % cell toxicity for CC(=O)[C@]1(O)Cc2c(O)c3c(c(O)c2[C@@H](O[C@H]2C[C@H](N)[C@H](O)[C@H](C)O2)C1)C(=O)c1ccccc1C3=O.Cl [Idarubicin, Idarubicin Hydrochloride] .
A: 90
